Reference source: patent US20090035322A1

For each record, write down the corresponding Percent of Binding to Mutant Human CD20.
- MEASURED TARGET: T1, mutant human CD20 #7 (Y77F, N163D) (human, UniProt P11836 1-297)
- T1 construct: Stably expressed on MG87 cells
- T1 chain: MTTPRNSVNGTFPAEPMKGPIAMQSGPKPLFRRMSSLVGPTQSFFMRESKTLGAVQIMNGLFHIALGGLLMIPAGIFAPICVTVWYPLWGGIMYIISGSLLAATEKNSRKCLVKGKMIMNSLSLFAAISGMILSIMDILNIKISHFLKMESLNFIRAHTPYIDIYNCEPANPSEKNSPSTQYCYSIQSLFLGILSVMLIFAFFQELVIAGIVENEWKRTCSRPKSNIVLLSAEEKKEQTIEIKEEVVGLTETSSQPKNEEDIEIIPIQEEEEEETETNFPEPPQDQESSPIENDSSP
- PROTOCOL DESCRIPTION: FACS, mutant-hCD20 MG87 cells; 100%=best antibody
Lab book: enter the figure in %, no units written.

# input Fill in Percent of Binding to Mutant Human CD20 for record 6B9-4 (antibody, V domains shown, Fully human IgG, constant region not specified; also called 6B9-4N) VH: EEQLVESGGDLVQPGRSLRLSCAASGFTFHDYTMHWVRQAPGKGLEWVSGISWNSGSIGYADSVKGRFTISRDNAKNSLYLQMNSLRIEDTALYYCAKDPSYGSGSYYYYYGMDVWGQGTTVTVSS VL: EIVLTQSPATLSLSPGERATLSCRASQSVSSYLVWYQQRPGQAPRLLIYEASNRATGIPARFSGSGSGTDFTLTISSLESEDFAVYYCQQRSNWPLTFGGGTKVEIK
# output 2

# input Query Percent of Binding to Mutant Human CD20 for 6F6-1 (antibody, V domains shown, Fully human IgG, constant region not specified; also called 6F6-1N) VH: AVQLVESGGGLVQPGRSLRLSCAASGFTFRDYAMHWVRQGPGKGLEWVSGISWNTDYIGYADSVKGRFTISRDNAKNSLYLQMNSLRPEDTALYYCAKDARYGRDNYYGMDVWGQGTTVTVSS VL: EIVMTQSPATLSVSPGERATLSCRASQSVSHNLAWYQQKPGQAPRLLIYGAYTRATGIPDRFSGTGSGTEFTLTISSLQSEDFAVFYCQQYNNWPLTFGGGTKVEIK
# output 2

# input Entry 9C11-14 (antibody, V domains shown, Fully human IgG, constant region not specified; also called 9C11-14N) VH: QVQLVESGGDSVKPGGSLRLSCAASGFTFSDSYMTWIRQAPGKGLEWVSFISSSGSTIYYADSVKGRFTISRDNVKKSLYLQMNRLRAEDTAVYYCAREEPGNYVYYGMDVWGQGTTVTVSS VL: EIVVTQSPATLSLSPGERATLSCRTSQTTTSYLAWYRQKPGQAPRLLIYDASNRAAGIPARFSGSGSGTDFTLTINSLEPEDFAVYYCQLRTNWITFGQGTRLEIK needs its Percent of Binding to Mutant Human CD20 filled in; supply it.
# output 96

# input Look up Percent of Binding to Mutant Human CD20 of 3B9-10 (antibody, V domains shown, Fully human IgG, constant region not specified; also called 3B9-10N) VH: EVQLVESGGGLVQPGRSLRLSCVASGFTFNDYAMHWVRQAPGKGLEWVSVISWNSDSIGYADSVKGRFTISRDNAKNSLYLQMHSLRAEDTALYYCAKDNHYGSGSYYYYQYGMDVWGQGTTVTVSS VL: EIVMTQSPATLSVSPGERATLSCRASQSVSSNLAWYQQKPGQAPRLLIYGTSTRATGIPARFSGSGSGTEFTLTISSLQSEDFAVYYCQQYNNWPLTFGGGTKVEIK and report it.
# output 1

# input Find the measured Percent of Binding to Mutant Human CD20 of 9D4-7 (antibody, V domains shown, Fully human IgG, constant region not specified; also called 9D4-7N) VH: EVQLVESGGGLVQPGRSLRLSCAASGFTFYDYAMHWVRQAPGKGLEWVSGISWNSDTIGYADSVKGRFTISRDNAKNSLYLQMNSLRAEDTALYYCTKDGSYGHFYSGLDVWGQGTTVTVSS VL: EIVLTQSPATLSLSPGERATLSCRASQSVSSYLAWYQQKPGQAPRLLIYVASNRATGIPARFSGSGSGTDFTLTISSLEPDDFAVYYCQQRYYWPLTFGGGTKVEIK and report it.
# output 2
